- System: Salmonella tiphimurium TA100
- EXPERIMENTAL PROTOCOL: AMES test, TA100
- CONDITION DESCRIPTION: value per plate; Addition of S9: no
MEASURED PARAMETER: TA100 Cytotoxicity (µg)
Give bare numbers, in µg.

Oc1c(I)cc(Cl)c2cccnc12 [Clioquinol, reference compound] = 30

response.value for Oc1cccc2ccc(C(F)(F)c3ccc4cccc(O)c4n3)nc12 (field: TA100 Cytotoxicity) = 300

====

- SYSTEM TESTED: Aβ1-42 (Homo sapiens, UniProt P05067)
- Construct: The β-amyloid peptide Aβ1-42 (Aβ1-42) was synthesised, purified (to a purity greater than 95%); made in house; host or cells: chemical peptide synthesis (no expression host)
- Sequence (P05067 672-713): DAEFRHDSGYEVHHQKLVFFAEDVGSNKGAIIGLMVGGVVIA
- EXPERIMENTAL PROTOCOL: Inhibition of the precipitation of Aβ1-42 by the addition of ligand (Micro BCA assay of soluble/aggregated peptide)
- Format: biochemical
- CONDITION DESCRIPTION: Aβ1-42 5 μM, no metal salt, 1 h 37° C. then 1 h with 200 μM ligand, pH 7.4
Please enter Satisfied where without metal % soluble Aβ is greater than or equal to 70%, and Not satisfied where it is lower.

Use the examples below as a reference point.
Oc1cccc2ccc(CCc3ccc4cccc(O)c4n3)nc12 = Not satisfied
CC(C)(c1ccc2cccc(O)c2n1)c1ccc2cccc(O)c2n1 = Not satisfied
Nc1cccc2cccnc12 [8-aminoquinoline, reference compound] = Not satisfied

In plain terms: is recorded without metal % soluble Aβ at least 70% for Cc1ccc2cccc(NCCNc3cccc4ccc(C)nc34)c2n1 ?
Satisfied

In plain terms: is recorded without metal % soluble Aβ at least 70% for O=C(Nc1cccc2cccnc12)c1cccc2cccnc12 [Compound 24, N-8-quinolinyl-8-quinoline carboxamide] ?
Not satisfied
